Provenance of the data: ChEMBL document CHEMBL4354806

Entries and their measured IC50 follow.
- measured_on: Integrin alpha-V/beta-3 (Homo sapiens, UniProt P05106+P06756)
- assay_comment: Inhibition of recombinant human integrin alphaV (31 to 992 residues) beta3 (27 to 718 residues) expressed in CHO cells preincubated for 15 mins followed by Cy3B-RGD probe addition and measured after 2 hrs by fluorescence polarization assay
Return type: number; implicit unit nM.

# IC50 (compound: O=C(O)CC(Nc1ccc(OCCc2ccc3c(n2)NCCC3)cn1)c1ccc(C(F)(F)F)cc1 (racemic) ) is 7.94

# IC50 (compound: O=C(O)CC(Nc1cnc(OCCc2ccc3c(n2)NCCC3)nc1)c1ccc(Cl)cc1 (racemic) ) is 7.94

Moving on to the next compound.
# IC50 (compound: O=C(O)CC(Nc1ccc(OCCc2ccc3c(n2)NCCC3)nc1)c1cccc(Cl)c1 (racemic) ) is 12.6
